- SUBJECT OF TEST: human CB2 receptors (Homo sapiens)
- Construct: host or cells: CHO cells
- Sequence (P34972 whole entry): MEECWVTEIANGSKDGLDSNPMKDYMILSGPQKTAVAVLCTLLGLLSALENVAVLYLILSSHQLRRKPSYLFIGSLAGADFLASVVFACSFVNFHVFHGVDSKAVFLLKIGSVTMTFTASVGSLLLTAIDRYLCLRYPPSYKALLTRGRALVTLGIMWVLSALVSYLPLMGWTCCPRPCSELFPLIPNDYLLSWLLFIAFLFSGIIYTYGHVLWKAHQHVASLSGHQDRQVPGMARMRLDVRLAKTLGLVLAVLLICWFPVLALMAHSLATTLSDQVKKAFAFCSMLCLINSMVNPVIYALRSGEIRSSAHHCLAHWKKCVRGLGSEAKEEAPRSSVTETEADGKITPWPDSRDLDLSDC
- METHOD: [3H]-CP-55,940 competition binding, CHO cell membranes transfected with human CB2 receptors
RECORDED METRIC: Ki

IN: Provide value of Ki for this record tested with human CB2 receptors (Homo sapiens): CCCCCn1cc(Cc2cccc3ccccc23)c2ccccc21
OUT: 363 nM

* * *

- SUBJECT OF TEST: human CB1 receptors (Homo sapiens, UniProt P21554)
- Construct: host or cells: CHO cells
- Sequence (P21554 whole entry): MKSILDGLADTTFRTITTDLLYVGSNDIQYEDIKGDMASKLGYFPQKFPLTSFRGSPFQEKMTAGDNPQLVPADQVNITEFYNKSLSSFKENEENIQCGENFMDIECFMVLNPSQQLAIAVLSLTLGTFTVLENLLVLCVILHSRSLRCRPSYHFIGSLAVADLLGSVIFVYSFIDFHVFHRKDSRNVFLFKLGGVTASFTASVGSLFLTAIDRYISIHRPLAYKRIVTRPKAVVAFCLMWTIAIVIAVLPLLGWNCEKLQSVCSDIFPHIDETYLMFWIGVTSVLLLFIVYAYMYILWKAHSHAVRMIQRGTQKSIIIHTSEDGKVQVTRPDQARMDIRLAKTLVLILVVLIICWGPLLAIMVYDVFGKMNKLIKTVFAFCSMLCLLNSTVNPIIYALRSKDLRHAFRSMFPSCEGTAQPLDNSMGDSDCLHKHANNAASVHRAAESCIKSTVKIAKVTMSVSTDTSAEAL
- METHOD: Cyclic AMP assay (forskolin-stimulated) in CHO cells transfected with human CB1 receptors
- Type: cell-based
RECORDED METRIC: pIC50
Scale note: pIC50 = -log10(concentration in M).

IN: Looking for the measured pIC50 of CCCCCn1cc(Cc2cccc3ccccc23)c2ccccc21 [JWH-175] , can you help?
OUT: 7.14
